# Assayed target: NANOLUC® Luciferase (Oplophorus gracilirostris, UniProt Q9GV45, A31E/A60N/A81I/F95D/I117V/K70R/L54V/L99Q/M102K/N193R/P142E/Q151K/Q38R/Q45L/V71I/Y165I)
# Sequence (Q9GV45 28-196 with tags or gaps with the stated changes limits assumed): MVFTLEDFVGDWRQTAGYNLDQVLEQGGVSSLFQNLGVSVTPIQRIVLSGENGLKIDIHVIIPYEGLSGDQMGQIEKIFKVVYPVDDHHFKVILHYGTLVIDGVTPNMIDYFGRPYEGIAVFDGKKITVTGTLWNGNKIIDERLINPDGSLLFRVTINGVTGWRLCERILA
# Test description: Luminescence assay with purified NANOLUC luciferase (Example 7)
# Assay type: biochemical
# Measurement conditions: bioluminescence with NANOLUC luciferase
Field: λmax, nm. Provide a value for each of the compounds that follow.
Provide a numeric answer, followed by its unit.

Measured λmax, nm of O=c1c(Cc2ccco2)nc2c(-c3cccs3)[nH]c(-c3ccccc3)cn1-2 : 514 nm

Measured λmax, nm of Nc1ccc(-c2cn3c(=O)c(Cc4ccco4)nc-3c(-c3ccnc4ccccc34)[nH]2)cc1 : 583 nm

Measured λmax, nm of Nc1ccc(-c2cn3c(=O)c(Cc4ccco4)nc-3c(Cc3ccccc3)[nH]2)cc1 : 502 nm

Measured λmax, nm of O=c1c(Cc2ccco2)nc2c(-c3ccc(Cl)s3)[nH]c(-c3ccccc3)cn1-2 : 523 nm

Measured λmax, nm of O=c1c(Cc2ccco2)nc2c(-c3ccc(F)nc3)[nH]c(-c3ccccc3)cn1-2 : 496 nm

Measured λmax, nm of O=c1c(Cc2ccco2)nc2c(-c3cc(F)c(F)c(F)c3)[nH]c(-c3ccccc3)cn1-2 : 502 nm

Measured λmax, nm of N#Cc1ccc(-c2[nH]c3c(n4c(=O)c(Cc5ccco5)nc2-4)CCc2ccccc2-3)s1 : 574 nm

Measured λmax, nm of O=c1c(Cc2ccco2)nc2c(Cc3ccccc3)[nH]c(-c3ccccc3)cn1-2 : 460 nm
